Numbers sourced from ChEMBL document CHEMBL3988442.

# System: Leishmania donovani
# Test description: Leishmania intramacrophage assay
# Type: functional, organism-based
# Set-up: scale not given: in the data most compounds retested in dose-response had high values
# Test conditions: 30.3 µM; […]
The whole screen tested about 69,000 compounds, of which about 1,000 (1.4%) showed an effect of 50% or more. The entries come from a sample that favours strong results as a whole.
Parameter: Percent Effect (%)
Output spec: scalar in %, unitless text.

COc1cccnc1-c1ccc(F)c2c1OC(CN)C2 (configuration not stated)    -22.62
COc1ccc2[nH]c(CNc3cc(C4CCNCC4)nc(C)n3)cc2c1    -59.5
COc1cccc2c1OCCCN(Cc1ccc(C(N)=O)c(=O)[nH]1)C2    18.01

Can you share its Percent Effect? I mean this molecule: COc1cc(OC)cc(-c2cccc3c2OC(CN)C3)c1 (configuration not stated)
81.48

Consider the molecule Cc1nc(-c2cc(Cl)cc3c2OC(CN)C3)c[nH]1 (configuration not stated) and give its measured Percent Effect.
27.22

May I ask what Percent Effect has been recorded for COc1cc(-c2ccc(F)c3c2OC(CN)C3)cc(OC)c1OC (configuration not stated) ?
19.84

Query (molecule): COc1cc(-c2cccc3c2OC(CN)C3)cc(OC)c1OC (configuration not stated) ; field requested: Percent Effect
39.45

So what's the measured Percent Effect for this one? Cc1nc(CCNC(=O)C(N)c2c(C)n[nH]c2C)sc1C (configuration not stated)
7.254

Requested read-out: Percent Effect. Entry: Cc1oncc1C(=O)NCC1(O)CCc2ccccc2C1 (configuration not stated)
25.53

Using the record for NCC1Cc2cccc(-c3ccc(O)c(F)c3)c2O1 (configuration not stated) , report its Percent Effect.
31.37

Dear colleague, I am looking for the recorded Percent Effect of the following molecule: NCC1Cc2cccc(-c3nccc(N4CCC(O)CC4)n3)c2O1 (configuration not stated)
19.12

Could you tell me which Percent Effect is on file for COc1c(F)cc(-c2cccc3c2OC(CN)C3)cc1F (configuration not stated) ?
78.5

###

# Tested on: Leishmania donovani
# Test description: Leishmania intramacrophage assay
# Type: functional, organism-based
# Design: scale not given: in the data most compounds retested in dose-response had high values
# Test conditions: 30.3 µM; […]
Hit rate of the full screen: of about 69,000 compounds, about 1,000 (1.4%) showed an effect of 50% or more. The full list was thinned out, with strong results kept by preference.
Threshold 10%: Percent Effect strictly smaller gives yes (1), otherwise no (0).

CNC(=O)c1ncn2c1CN(CCC(C)C)S(=O)(=O)c1ccccc1-2    no (0)

Does N#Cc1cccc(N2CCCC3(CN(C(=O)c4ccc[nH]4)CCO3)C2)c1 (centres undefined) have Percent Effect strictly under 10%?
yes (1)

I'd appreciate it if you could check whether CC(C)(C)NC(=O)c1ccn(COc2ccccc2Cl)n1 has Percent Effect smaller than 10%.
no (0)

Please check: Percent Effect for Cc1nc(NCCc2ccccc2)cc(C(=O)N2CCOCC2)n1 , strictly under 10% or not?
no (0)

API: query returns whether the compound falls strictly under 10% in Percent Effect. Query: CCN(CCO)C(=O)c1cc(Cn2c(C)nc3ccccc32)[nH]n1
no (0)

Criterion: Percent Effect strictly below 10%. Is it met by CCN1Cc2c(C(=O)NC)ncn2-c2ccccc2S1(=O)=O ?
yes (1)

Dear reviewer, please state whether CCCN(CC)C(=O)c1cc(Cn2c(C)nc3ccccc32)[nH]n1 has Percent Effect strictly beneath 10%.
no (0)

# TODO verify Percent Effect < 10% strictly for this compound: CC(Oc1ccc(F)c(F)c1)C(=O)N(CC(N)=O)C1CCCC1 (centres undefined)
yes (1)

Decide: Percent Effect of COc1cccc2c1OCC(CNC(=O)Cn1ccnc1C)C2 (centres undefined) strictly below 10%?
yes (1)

Threshold test, Percent Effect < 10%: CO[C@H]1CN(C(=O)c2cccnc2)[C@@H]2CCCO[C@H]12.O=C(O)C(F)(F)F
yes (1)

Threshold test, Percent Effect < 10%: CC(C)(C)NC(=O)c1ccn(COc2c(Cl)cccc2Cl)n1
yes (1)

Is it true that Percent Effect reported for O=C(NCCNc1ncccn1)N1CCN(c2nccs2)CC1 is less than 10%?
no (0)

Percent Effect strictly < 10% for this compound? CC(NC(=O)C1CCCC1)c1nncn1C(C)C (centres undefined)
no (0)

Could you please tell me whether Percent Effect recorded for COc1cc(NC2CCS(=O)(=O)C2)ncn1 (centres undefined) is less than 10%?
yes (1)

I'd appreciate it if you could check whether COC(=O)c1ccn(COc2ccccc2Cl)n1 has Percent Effect smaller than 10%.
yes (1)

###

The compounds listed here are annotated with their Percent Effect.
# System: Leishmania donovani
# Test description: Leishmania intramacrophage assay
# Format: functional, organism-based
# Design: scale not given: in the data most compounds retested in dose-response had high values
# Test conditions: 30.3 µM; […]
About 1,000 (1.4%) of roughly 69,000 compounds showed an effect of 50% or more. Only a selection was taken, and strong results are over-represented in it overall.
Number in %, nothing else.

Check out these entries, answers already filled in.
Cn1ccc(CN2CCCC23CCN(Cc2ccccc2F)CC3)n1.O=C(O)C(F)(F)F.O=C(O)C(F)(F)F    36.62
COc1ccc(C)cc1NC(=O)Nc1cnc(N2CCOCC2)nc1    -26.13
COc1ccc(C)cc1NC(=O)Nc1cnc(N2CCCC2)nc1    -0.2164
CS(=O)(=O)c1ccc(NC(=O)NCCC2=CCCCC2)cc1    16.41
C=Cc1cccc(CN2CCCn3nc(CNS(C)(=O)=O)cc3C2)c1    8.14

From here, focus on the item given below.
What value of Percent Effect has been reported for the following compound? Cc1c[nH]c(CN(C)C(C(=O)O)c2c(F)cccc2OC(C)C)n1 (stereo unspecified)
12.35

###

# Tested on: Leishmania donovani
# Test description: Leishmania intramacrophage assay
# Type: functional, organism-based
# Design: scale not given: in the data most compounds retested in dose-response had high values
# Test conditions: 30.3 µM; […]
About 1,000 (1.4%) of roughly 69,000 compounds showed an effect of 50% or more. For the sample, strong results were picked, then their nearest neighbours and some compounds at random.
If the reported Percent Effect equals or exceeds 10%, assign Condition met. If not, assign Condition not met.

Cc1cc(CN2CCC(c3cc(Cc4ccccc4)n[nH]3)CC2)[nH]n1    Condition met

Can COc1cccc(Nc2nc(C3CCCNC3)c3ccccn23)c1.Cl (configuration not stated) be said to have Percent Effect at or above 10%?
Condition not met

Can COc1cccc(Nc2nc(C3CCCNC3)c3sc(C)c(C)n23)c1.Cl (configuration not stated) be said to have Percent Effect at or above 10%?
Condition met

Given the entry Cc1noc(CCCC(=O)N2CCNC(=O)C2)n1 , answer whether its Percent Effect meets or surpasses 10%.
Condition met

hey, is Percent Effect for this one >= 10%? CN(C)c1ccc(NC(=O)c2cccc(N(C)C)c2)nc1
Condition not met

Please indicate if the recorded Percent Effect for Cc1ccc(N2CCC(c3cc(Cc4ccccc4)n[nH]3)CC2)nn1 meets or exceeds 10%.
Condition met

Percent Effect >= 10% for CN1CCC(N(CCc2ccccc2)C(=O)c2ccc(CO)cc2)CC1 ?
Condition met

Would you say COCCN1CCC(CN(CC2CCCO2)C(=O)Cn2cccn2)CC1 (configuration not stated) shows Percent Effect at minimum 10%?
Condition met

Please tell me: is the compound COc1ccc(CN2Cc3[nH]nc(C(=O)N(C)C)c3C2)cc1 at or over 10% in terms of Percent Effect?
Condition not met

Can COc1ncc(-c2ccc(NC(C)=O)cc2)c(OC)n1 be said to have Percent Effect at or above 10%?
Condition not met

Test whether the compound Cc1ccn(Cc2nc(C(C)OCC(C)C)no2)c(=O)c1 (configuration not stated) records Percent Effect of 10% or higher.
Condition not met

Kindly determine if Percent Effect recorded for CC(Nc1nc(-c2ccncc2)nc2c1CCNC2)c1ccccc1 (configuration not stated) is above or exactly 10%.
Condition met

Evaluate CN(C)C[C@H]1C[C@@H](CO)CN(C(=O)c2cc(=O)[nH]c3cc(F)ccc23)C1 : Percent Effect at minimum 10%?
Condition met

Kindly determine if Percent Effect recorded for CC1CN(C(=O)c2cc(=O)[nH]c3ccc(F)cc23)CCO1 (configuration not stated) is above or exactly 10%.
Condition not met

hey, is Percent Effect for this one >= 10%? CC(C)Nc1nc(N2CCCC2)nc2c1CN(C)CC2
Condition met

# bool: Percent Effect of COc1cccc(C(O)CNC(=O)CC2CCCCC2)c1 (configuration not stated) >= 10%
Condition not met

###

# Test system: Leishmania donovani
# Test description: Leishmania intramacrophage assay
# Assay type: functional, organism-based
# Set-up: scale not given: in the data most compounds retested in dose-response had high values
# Test conditions: 30 µM; 30.03 µM
Hit rate of the full screen: of about 69,000 compounds, about 1,000 (1.4%) showed an effect of 50% or more. Many of the other results were omitted from the sample, so strong results are more common in it than they were.
Listing of entries alongside the reported Percent Effect.
Reply numerically in %, unit not repeated.

Answered cases to consult:
Cn1cnc(S(=O)(=O)N2CCCC2)c1Cl    14.79
Cc1ccc(O)c(CNC2CCc3nc(C(C)C)nn3C2)n1 (configuration not stated)    0.7212
CC(CNc1cncc(-n2cccn2)n1)N(C)c1ccccc1 (configuration not stated)    31.44
CCc1nc(C2CCCN2Cc2nc(CCOC)no2)no1 (configuration not stated)    14.38
O=C(CC1CC1)N1CCC2(CC1)CN(c1ncccn1)CCO2    2.315
NC(=O)CN1CCC(NC(=O)Nc2nccs2)CC1    -0.9986

Query: Percent Effect; subject: NCCn1nc(C2CCN(C(=O)CC3CCCCC3)C2)c2nccnc21 (configuration not stated)
-5.021

Endpoint output: Percent Effect of O=C1OCCN1CCOc1nc(-c2ccccc2Cl)no1 . Value?
4.618

Please report the recorded Percent Effect for CNc1cc(CNC(=O)c2ccccc2)nc(-c2ccncc2)n1 .
35.29

Param item = CCN(C(=O)c1ccc(-n2ncc(C#N)c2N)cc1)C1CCCC1 ; retrieve measured Percent Effect.
36.15

# lookup: Percent Effect of CCC(O)CN1CCN(C(=O)c2cccn2Cc2ccccc2)CC1 (configuration not stated)
13.25

Given the entry COc1ccc(CCN2CCCC(Cn3nc(C)nc3C)C2)cc1 (configuration not stated) , report its measured Percent Effect.
18.76
